Tested on: BT-549
Test: Antiproliferative activity against human BT-549 cells assessed as inhibition of cell growth measured after 72 hrs by MTS assay
Format: functional, cell-based
Details: BT-549, 72 h
RECORDED_METRIC: log10(IC50) (log10 of the value in nM)

- C=CCn1c(=O)c2cnc(Nc3ccc(N4CCN(C)CC4)cc3)nc2n1-c1cccc(C(C)(C)O)n1: 2.69
- C=CCn1c(=O)c2cnc(Nc3ccc(N4CCN(CCCC(=O)N[C@H](C(=O)N5C[C@@H](O)C[C@H]5C(=O)NCc5ccc(-c6scnc6C)cc5)C(C)(C)C)CC4)cc3)nc2n1-c1cccc(C(C)(C)O)n1: 3.23
- C=CCn1c(=O)c2cnc(Nc3ccc(N4CCN(CCCC(=O)N[C@H](C(=O)N5C[C@H](O)C[C@H]5C(=O)NCc5ccc(-c6scnc6C)cc5)C(C)(C)C)CC4)cc3)nc2n1-c1cccc(C(C)(C)O)n1: 3.38
- C=CCn1c(=O)c2cnc(Nc3ccc(N4CCN(CCCC(=O)NCCOCCOCCNc5cccc6c5C(=O)N(C5CCC(=O)NC5=O)C6=O)CC4)cc3)nc2n1-c1cccc(C(C)(C)O)n1 (stereo not given): 3.90
- C=CCn1c(=O)c2cnc(Nc3ccc(N4CCN(CCCC(=O)NCCOCCOCCNc5cccc6c5C(=O)N(C5CCC(=O)N(C)C5=O)C6=O)CC4)cc3)nc2n1-c1cccc(C(C)(C)O)n1 (stereo not given): 3.95

###

Target: Protein cereblon/Wee1-like protein kinase (Homo sapiens) (UniProt P30291+Q96SW2)
Assay: PROTAC activity at CRBN/Wee1 in human HeLa S3 cells assessed as induction of Wee1 degradation by measuring reduction in phosphorylation of CDK1 at Tyr15 residue at 1 uM measured after 24 hrs by Western blot analysis relative to control
Format: cell-based
Design: scale not given: the % may be the effect or the level left
# maps each entry to its Activity
RECORDED_METRIC: Activity (%)

• C=CCn1c(=O)c2cnc(Nc3ccc(N4CCN(CCCC(=O)NCCCCCCCC(=O)NCCNc5cccc6c5C(=O)N(C5CCC(=O)NC5=O)C6=O)CC4)cc3)nc2n1-c1cccc(C(C)(C)O)n1 (stereo not drawn) = 88
• C=CCn1c(=O)c2cnc(Nc3ccc(N4CCN(CCCC(=O)NCCOCCOCCOCC(=O)NCCNc5cccc6c5C(=O)N(C5CCC(=O)NC5=O)C6=O)CC4)cc3)nc2n1-c1cccc(C(C)(C)O)n1 (stereo not drawn) = 84
• C=CCn1c(=O)c2cnc(Nc3ccc(N4CCN(CCCC(=O)NCCOCCOCCNc5cccc6c5C(=O)N(C5CCC(=O)NC5=O)C6=O)CC4)cc3)nc2n1-c1cccc(C(C)(C)O)n1 (stereo not drawn) = 51
• C=CCn1c(=O)c2cnc(Nc3ccc(N4CCN(CCCC(=O)NCCCCCCNc5cccc6c5C(=O)N(C5CCC(=O)NC5=O)C6=O)CC4)cc3)nc2n1-c1cccc(C(C)(C)O)n1 (stereo not drawn) = 39
• C=CCn1c(=O)c2cnc(Nc3ccc(N4CCN(CCCC(=O)NCCOCCOCC(=O)NCCNc5cccc6c5C(=O)N(C5CCC(=O)NC5=O)C6=O)CC4)cc3)nc2n1-c1cccc(C(C)(C)O)n1 (stereo not drawn) = 80
• C=CCn1c(=O)c2cnc(Nc3ccc(N4CCN(CCCC(=O)NCCOCCOCCOCCOCCNc5cccc6c5C(=O)N(C5CCC(=O)NC5=O)C6=O)CC4)cc3)nc2n1-c1cccc(C(C)(C)O)n1 (stereo not drawn) = 65
• C=CCn1c(=O)c2cnc(Nc3ccc(N4CCN(CCCC(=O)NCCCCCCCCCCC(=O)NCCNc5cccc6c5C(=O)N(C5CCC(=O)NC5=O)C6=O)CC4)cc3)nc2n1-c1cccc(C(C)(C)O)n1 (stereo not drawn) = 41
• C=CCn1c(=O)c2cnc(Nc3ccc(N4CCN(CCCC(=O)NCCCC(=O)NCCNc5cccc6c5C(=O)N(C5CCC(=O)NC5=O)C6=O)CC4)cc3)nc2n1-c1cccc(C(C)(C)O)n1 (stereo not drawn) = 60
